// data source = patent US12030892B2

Assay Target: DDB1ΔB-CRBN (Homo sapiens (Human), UniProt Q96SW2)
Sequence (Q96SW2 whole entry, stated change not applied): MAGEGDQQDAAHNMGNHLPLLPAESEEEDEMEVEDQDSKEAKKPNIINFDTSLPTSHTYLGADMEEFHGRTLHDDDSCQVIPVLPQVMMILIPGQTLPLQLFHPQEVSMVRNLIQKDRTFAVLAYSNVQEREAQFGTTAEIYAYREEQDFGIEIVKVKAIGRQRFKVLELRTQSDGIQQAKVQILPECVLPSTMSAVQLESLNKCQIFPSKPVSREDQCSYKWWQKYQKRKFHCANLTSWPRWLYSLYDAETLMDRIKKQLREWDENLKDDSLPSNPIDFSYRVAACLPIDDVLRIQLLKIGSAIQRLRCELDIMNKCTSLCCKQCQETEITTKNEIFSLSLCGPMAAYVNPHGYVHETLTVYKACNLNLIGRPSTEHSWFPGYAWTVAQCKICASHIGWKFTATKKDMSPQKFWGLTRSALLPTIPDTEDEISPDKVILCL
Assay Remarks: Atto565-Lenalidomide FP displacement assay (CRBN binding)
Cond: FP displacement of 10 nM Atto565-Lenalidomide, 100 nM DDB1ΔB-CRBN, n=3

# Molecule, Measure Unit, IC50
rows = [
    ("O=C1CCC(N2C(=O)c3cccc4cccc(c34)C2=O)C(=O)N1 (stereo not drawn) [Compound 9]", "µM", 2.6),
    ("Nc1cc2c3c(cccc3c1)C(=O)N(C1CCC(=O)NC1=O)C2=O (stereo not drawn) [Compound 11]", "µM", 11.4),
    ("O=C1CCC(N2C(=O)c3cccc4cc(O)cc(c34)C2=O)C(=O)N1 (stereo not drawn) [Compound 10]", "µM", 3.5),
]
